Reported values of CC50 for individual entries
- EXPERIMENT SUMMARY: Cytotoxicity against human MT4 cells by MTT assay
- Assay type: cell-based

SUBSTANCE SMILES: c1cc(CN2CCCNCCNCCCNCC2)ccc1CN1CCCNCCNCCCNCC1
CC50: > 10 µg/mL

Okay, now this compound:
In: For the compound shown here, CC[n+]1ccc(-c2cc[n+](Cc3cc(C[n+]4ccc(-c5cc[n+](CC)cc5)cc4)cc(-[n+]4ccc(-c5cc[n+](-c6cc(C[n+]7ccc(-c8cc[n+](CC)cc8)cc7)cc(C[n+]7ccc(-c8cc[n+](CC)cc8)cc7)c6)cc5)cc4)c3)cc2)cc1.F[P-](F)(F)(F)(F)F.F[P-](F)(F)(F)(F)F.F[P-](F)(F)(F)(F)F.F[P-](F)(F)(F)(F)F.F[P-](F)(F)(F)(F)F.F[P-](F)(F)(F)(F)F.F[P-](F)(F)(F)(F)F.F[P-](F)(F)(F)(F)F.F[P-](F)(F)(F)(F)F.F[P-](F)(F)(F)(F)F , give the reported CC50.
Out: > 100 µg/mL
